- assay method text: Unbound fraction in dog liver
- Assay type: ADME, tissue-based, Canis lupus familiaris
measured parameter: fraction unbound

The reported value for `Cc1nc(C)n(CC(=O)N2CCN(c3sc(C(F)(F)F)nc3-c3nc4ccc(-c5noc(C)n5)cc4[nH]3)C[C@H]2C)n1` in terms of fraction unbound is 0.106

* * *

- assay method text: in vitro
- experimental context: human, microsomes
microsomal CLint at 0.25 h, 1 µM reference

compound_string=Cc1nc(C)n(CC(=O)N2CCN(c3sc(C(F)(F)F)nc3-c3nc4ccccc4[nH]3)C[C@H]2C)n1 measured_parameter="microsomal CLint at 0.25 h, 1 µM" test_result="30 µL/min/mg"
compound_string=C[C@@H]1CN(c2sc(C(F)(F)F)nc2-c2nc3cc(OCCO)ccc3[nH]2)CCN1C(=O)Cn1cnc2cccnc21 measured_parameter="microsomal CLint at 0.25 h, 1 µM" test_result="43 µL/min/mg"
compound_string=Cc1nn(CC(=O)N2CCN(c3sc(C(F)(F)F)nc3-c3nc4ccccc4[nH]3)C[C@H]2C)cc1CN(C)C measured_parameter="microsomal CLint at 0.25 h, 1 µM" test_result="37 µL/min/mg"

The reported value for `COc1cc2nc(-c3nc(C(F)(F)F)sc3N3CCN(C(=O)Cn4cnc5cccnc54)[C@H](C)C3)[nH]c2cc1OC` in terms of microsomal CLint at 0.25 h, 1 µM is 30 µL/min/mg

The reported value for `C[C@@H]1CN(c2sc(C(F)(F)F)nc2-c2nc3ccc(CO)cc3[nH]2)CCN1C(=O)Cn1cnc2cccnc21` in terms of microsomal CLint at 0.25 h, 1 µM is 131 µL/min/mg

* * *

- assay method text: Half life in Balb/c mouse at 1 mg/kg, iv
- experimental context: in vivo
measured parameter: half-life (min)
Numeric answer only, unit min assumed.

The reported value for `C[C@@H]1CN(c2sc(C(F)(F)F)nc2-c2nc3ccccc3[nH]2)CCN1C(=O)Cn1cnc2cccnc21` in terms of half-life is 13.2

* * *

- assay method text: in vitro
- experimental context: human, microsomes
measured parameter: microsomal CLint at 0.25 h, 1 µM (µL/min/mg)
Numeric answer only, unit µL/min/mg assumed.

The reported value for `Cc1nc(C)n(CC(=O)N2CCN(c3sc(C(F)(F)F)nc3-c3nc4ccc(N5CCOCC5)cc4[nH]3)C[C@H]2C)n1` in terms of microsomal CLint at 0.25 h, 1 µM is 19

The reported value for `C[C@@H]1CN(c2sc(C(F)(F)F)nc2-c2nc3ccccc3[nH]2)CCN1C(=O)Cn1cnc2c1CCN(C)C2` in terms of microsomal CLint at 0.25 h, 1 µM is 21

The reported value for `Cc1nc(C)n(CC(=O)N2CCN(c3sc(C(F)(F)F)nc3-c3nc4c(F)cccc4[nH]3)C[C@H]2C)n1` in terms of microsomal CLint at 0.25 h, 1 µM is 24

The reported value for `Cc1nc(C)n(CC(=O)N2CCN(c3sc(C(F)(F)F)nc3-c3nc4ccc(C5CCN(C)CC5)cc4[nH]3)C[C@H]2C)n1` in terms of microsomal CLint at 0.25 h, 1 µM is 27

* * *

log10(AUC) reference
- assay method text: in vivo
- experimental context: Balb/c, mouse, po, 10 mg/kg
Heads up, the numbers here are log10 of AUC in ng·h/mL units.

Some entries whose results are on file:
compound_string=Cc1nn(CC(=O)N2CCN(c3sc(C(F)(F)F)nc3-c3nc4ccccc4[nH]3)C[C@H]2C)cc1CN(C)C test_result=2.92
compound_string=Cc1nc(C)n(CC(=O)N2CCN(c3sc(C(F)(F)F)nc3-c3nc4ccc(-c5noc(C)n5)cc4[nH]3)C[C@H]2C)n1 test_result=3.82
compound_string=C[C@@H]1CN(c2sc(C(F)(F)F)nc2-c2nc3ccccc3[nH]2)CCN1C(=O)Cn1cccn1 test_result=2.86

The reported value for `Cc1nc(C)n(CC(=O)N2CCN(c3sc(C(F)(F)F)nc3-c3nc4ccccc4[nH]3)C[C@H]2C)n1` in terms of log10(AUC) is 4.03

The reported value for `Cc1nc(C)n(CC(=O)N2CCN(c3sc(C(F)(F)F)nc3-c3nc4ccc(C5CCN(C)CC5)cc4[nH]3)C[C@H]2C)n1` in terms of log10(AUC) is 1.74

The reported value for `Cc1nc(C)n(CC(=O)N2CCN(c3sc(C(F)(F)F)nc3-c3nc4c(F)cccc4[nH]3)C[C@H]2C)n1` in terms of log10(AUC) is 4.62
